All figures here come from patent US20240327480A1.

Measured fluorescence relative to imm3 binding (=100), listed per entry.
# measured on: T1, full length RXR-alpha (human, UniProt P19793 1-462)
# T1 construct: mature; also called RXRα; NR2B1
# T1 sequence (looked up): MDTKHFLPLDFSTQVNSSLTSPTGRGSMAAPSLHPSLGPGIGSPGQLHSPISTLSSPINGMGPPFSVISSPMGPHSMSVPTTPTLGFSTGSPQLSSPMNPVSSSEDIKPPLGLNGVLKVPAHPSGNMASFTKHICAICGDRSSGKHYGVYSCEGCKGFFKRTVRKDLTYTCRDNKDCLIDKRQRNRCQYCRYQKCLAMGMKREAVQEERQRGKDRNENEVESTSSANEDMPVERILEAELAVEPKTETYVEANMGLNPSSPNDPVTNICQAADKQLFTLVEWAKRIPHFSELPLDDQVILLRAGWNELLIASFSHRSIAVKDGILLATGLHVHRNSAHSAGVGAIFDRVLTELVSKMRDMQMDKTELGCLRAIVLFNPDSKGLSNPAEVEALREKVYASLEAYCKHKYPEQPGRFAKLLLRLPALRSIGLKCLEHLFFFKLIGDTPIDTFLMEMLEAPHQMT
# measurement notes: plate binding assay, 800 ng/well SA488-labelled peptide on 400 ng/well adsorbed receptor
Ends that are not written are not given here. * marks the point of attachment. Biotin = O=C1N[C@H]2[C@H](CS[C@H]2CCCCC(=O)*)N1
property measured: fluorescence relative to imm3 binding (=100)

INSERT INTO results (binder, observed) VALUES
  ('Biotin-RNGNFHPKQCHPALDGQRGKCW (cysteine pairing not given here; also: labelled with Streptavidin-Alexa 488 conjugate (SA488), Synthetic immodulin peptide derived from IGFBP-4) [imm4]', '3.6 relative to imm3 binding (=100)'),
  ('Biotin-RKGFYKRKQCKPSRGRKRGICW (cysteine pairing not given here; also: labelled with Streptavidin-Alexa 488 conjugate (SA488), Synthetic immodulin peptide derived from IGFBP-5; also called immodulin peptide-5) [imm5]', '17.2 relative to imm3 binding (=100)'),
  ('Biotin-KKGFYKKKQCRPSKGRKRGFCW (cysteine pairing not given here; also: labelled with Streptavidin-Alexa 488 conjugate (SA488), Synthetic immodulin peptide derived from IGFBP-3; also called immodulin peptide-3) [imm3]', '11.2 relative to imm3 binding (=100)'),
  ('Biotin-HRGFYRKRQCRSSQGQRRGPCW (cysteine pairing not given here; also: labelled with Streptavidin-Alexa 488 conjugate (SA488), Synthetic immodulin peptide derived from IGFBP-6; also called immodulin peptide-6) [imm6]', '12.9 relative to imm3 binding (=100)');
